Hello, the source for this data is patent US20190359687A1, in case you need it.

I'd be grateful if you could share measured binding by ELISA relative to parental for these entries.
Target: T1, recombinant human GPA ectodomain (human, UniProt P02724 20-91)
T1 construct: also called recombinant hGPA ECD; recGPA
T1 sequence: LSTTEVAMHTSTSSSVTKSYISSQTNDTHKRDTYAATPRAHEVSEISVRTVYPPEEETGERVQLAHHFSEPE
Assay: ELISA, rec hGPA ectodomain
One number for each entry.

Sample answers from the record:
Q: Requested read-out: binding by ELISA relative to parental. Entry: TPP-5324 (Fab, V domains shown, also called VH: (Y57S)) VH: EVQLVQSGAEVKKPGASVKVSCKASGYTFTTYTIHWVRQAPGQGLEWIGYINPSSDSTRYNPKFKDRVTLTTDKSTSTAYMELRSLRSDDTAVYYCQTGTRDYWGQGTTVTVSS VL: DIQLTQSPSFLSASVGDRVTITCSAASSVSYIYWFQQKPGKAPKLLIYSTSTLPSGVPSRFSGSGSGTEYTLTISSLQPEDFATYYCHQRNSFPFTFGQGTKLEIKR
Ans: 0.34

Q: Further, for TPP-5343 (Fab, V domains shown, also called VL: (S28G)) VH: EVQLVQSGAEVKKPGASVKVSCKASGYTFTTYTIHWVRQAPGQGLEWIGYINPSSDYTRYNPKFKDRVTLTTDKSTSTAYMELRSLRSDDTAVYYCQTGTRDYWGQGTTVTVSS VL: DIQLTQSPSFLSASVGDRVTITCSAASGVSYIYWFQQKPGKAPKLLIYSTSTLPSGVPSRFSGSGSGTEYTLTISSLQPEDFATYYCHQRNSFPFTFGQGTKLEIKR ?
Ans: 0.97

Attention now turns to another entry.
Q: Item TPP-5340 (Fab, V domains shown, also called VL: (S24R)) VH: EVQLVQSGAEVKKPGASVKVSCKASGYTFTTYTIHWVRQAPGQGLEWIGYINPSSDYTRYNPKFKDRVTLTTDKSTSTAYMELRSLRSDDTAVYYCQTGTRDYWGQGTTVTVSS VL: DIQLTQSPSFLSASVGDRVTITCRAASSVSYIYWFQQKPGKAPKLLIYSTSTLPSGVPSRFSGSGSGTEYTLTISSLQPEDFATYYCHQRNSFPFTFGQGTKLEIKR has what recorded binding by ELISA relative to parental?
Ans: 1.23
